System: Escherichia coli TOP10
Experiment: shrunken log2 fold change of peptide-encoding DNA abundance (4.5 h post-induction vs induction); higher = less antimicrobial activity (less host growth inhibition)
Conditions: time post-induction: 4.5 h; library: site-saturation at positions 5, 18, 19, 20
Readings of shrunken log2 fold change for the listed sequences

| residueString | measuredTarget | shrunken log2 fold change |
| --- | --- | --- |
| RRIRIRPPRLPRPRPRPLYGPRP | Escherichia coli TOP10 | -0.702 |
| RRIRIRPPRLPRPRPRPQIWPRP | Escherichia coli TOP10 | -0.174 |
| RRIRQRPPRLPRPRPRPAEFPRP | Escherichia coli TOP10 | -0.0119 |
| RRIRMRPPRLPRPRPRPKNTPRP | Escherichia coli TOP10 | 0.575 |
| RRIRSRPPRLPRPRPRPMNMPRP | Escherichia coli TOP10 | -0.118 |
| RRIRWRPPRLPRPRPRPKGAPRP | Escherichia coli TOP10 | 0.732 |
| RRIRDRPPRLPRPRPRPLDEPRP | Escherichia coli TOP10 | 0.034 |
| RRIRFRPPRLPRPRPRPMSEPRP | Escherichia coli TOP10 | -0.381 |
| RRIRERPPRLPRPRPRPFIHPRP | Escherichia coli TOP10 | -1.12 |
| RRIRCRPPRLPRPRPRPCVVPRP | Escherichia coli TOP10 | -0.474 |
| RRIRQRPPRLPRPRPRPEQGPRP | Escherichia coli TOP10 | 0.0169 |
| RRIRKRPPRLPRPRPRPHCIPRP | Escherichia coli TOP10 | -0.165 |
| RRIRARPPRLPRPRPRPCTDPRP | Escherichia coli TOP10 | -0.0325 |
| RRIRLRPPRLPRPRPRPKEQPRP | Escherichia coli TOP10 | 0.0445 |
| RRIRHRPPRLPRPRPRPYMAPRP | Escherichia coli TOP10 | -0.339 |
| RRIRLRPPRLPRPRPRPRYMPRP | Escherichia coli TOP10 | -0.982 |
| RRIRSRPPRLPRPRPRPDTFPRP | Escherichia coli TOP10 | 0.024 |
| RRIRKRPPRLPRPRPRPEFHPRP | Escherichia coli TOP10 | 0.131 |
| RRIRYRPPRLPRPRPRPNHTPRP | Escherichia coli TOP10 | -0.259 |
| RRIRARPPRLPRPRPRPNWGPRP | Escherichia coli TOP10 | -0.267 |
| RRIRWRPPRLPRPRPRPVMEPRP | Escherichia coli TOP10 | 0.0979 |
| RRIRPRPPRLPRPRPRPASCPRP | Escherichia coli TOP10 | 0.186 |
| RRIRWRPPRLPRPRPRPMQAPRP | Escherichia coli TOP10 | 1.83 |
| RRIRWRPPRLPRPRPRPFSLPRP | Escherichia coli TOP10 | 0.141 |
| RRIRCRPPRLPRPRPRPSMAPRP | Escherichia coli TOP10 | -0.224 |
| RRIRERPPRLPRPRPRPPGYPRP | Escherichia coli TOP10 | -0.175 |
| RRIRWRPPRLPRPRPRPQVYPRP | Escherichia coli TOP10 | -0.015 |
| RRIRHRPPRLPRPRPRPDPCPRP | Escherichia coli TOP10 | -0.186 |
| RRIRWRPPRLPRPRPRPAWMPRP | Escherichia coli TOP10 | 0.139 |
| RRIRGRPPRLPRPRPRPDDGPRP | Escherichia coli TOP10 | -0.0284 |
| RRIRNRPPRLPRPRPRPQHKPRP | Escherichia coli TOP10 | -0.155 |
| RRIRLRPPRLPRPRPRPWHGPRP | Escherichia coli TOP10 | -0.109 |
| RRIRSRPPRLPRPRPRPDAFPRP | Escherichia coli TOP10 | 0.387 |
| RRIRERPPRLPRPRPRPMDYPRP | Escherichia coli TOP10 | -0.214 |
| RRIRYRPPRLPRPRPRPGLYPRP | Escherichia coli TOP10 | -0.486 |
| RRIRMRPPRLPRPRPRPMIQPRP | Escherichia coli TOP10 | 0.00725 |
| RRIRRRPPRLPRPRPRPFFHPRP | Escherichia coli TOP10 | 0.154 |
| RRIRRRPPRLPRPRPRPVCYPRP | Escherichia coli TOP10 | 0.103 |
| RRIRYRPPRLPRPRPRPNTLPRP | Escherichia coli TOP10 | -0.704 |
| RRIRRRPPRLPRPRPRPILAPRP | Escherichia coli TOP10 | 1.17 |
| RRIRARPPRLPRPRPRPMRIPRP | Escherichia coli TOP10 | 0.155 |
| RRIRGRPPRLPRPRPRPQPYPRP | Escherichia coli TOP10 | -0.0844 |
| RRIRQRPPRLPRPRPRPLFNPRP | Escherichia coli TOP10 | -0.367 |
| RRIRLRPPRLPRPRPRPNTAPRP | Escherichia coli TOP10 | -0.248 |
| RRIRDRPPRLPRPRPRPQSYPRP | Escherichia coli TOP10 | -0.495 |
| RRIRVRPPRLPRPRPRPCANPRP | Escherichia coli TOP10 | -0.129 |
| RRIRGRPPRLPRPRPRPFAGPRP | Escherichia coli TOP10 | 0.00108 |
| RRIRLRPPRLPRPRPRPFEHPRP | Escherichia coli TOP10 | 0.0204 |
| RRIRPRPPRLPRPRPRPYTTPRP | Escherichia coli TOP10 | -0.52 |
| RRIRDRPPRLPRPRPRPDSEPRP | Escherichia coli TOP10 | -0.0121 |
| RRIRRRPPRLPRPRPRPNTIPRP | Escherichia coli TOP10 | -0.372 |
| RRIRMRPPRLPRPRPRPFWNPRP | Escherichia coli TOP10 | -0.266 |
| RRIRQRPPRLPRPRPRPTAEPRP | Escherichia coli TOP10 | 0.363 |
| RRIRQRPPRLPRPRPRPSDRPRP | Escherichia coli TOP10 | -0.264 |
| RRIRTRPPRLPRPRPRPVPSPRP | Escherichia coli TOP10 | 0.0454 |
| RRIRVRPPRLPRPRPRPDNAPRP | Escherichia coli TOP10 | -0.501 |
| RRIRYRPPRLPRPRPRPMPIPRP | Escherichia coli TOP10 | -0.16 |
| RRIRCRPPRLPRPRPRPDDWPRP | Escherichia coli TOP10 | 0.104 |
| RRIRSRPPRLPRPRPRPDTEPRP | Escherichia coli TOP10 | -0.0911 |
| RRIRKRPPRLPRPRPRPQCMPRP | Escherichia coli TOP10 | 0.0247 |
| RRIRERPPRLPRPRPRPFHRPRP | Escherichia coli TOP10 | -0.182 |
| RRIRGRPPRLPRPRPRPKDEPRP | Escherichia coli TOP10 | 0.696 |
| RRIRERPPRLPRPRPRPQGTPRP | Escherichia coli TOP10 | 0.0468 |

###

Test system: Escherichia coli TOP10
Test: shrunken log2 fold change of peptide-encoding DNA abundance (4.5 h post-induction vs induction); higher = less antimicrobial activity (less host growth inhibition)
Conditions: time post-induction: 4.5 h; library: site-saturation at positions 5, 18, 19, 20

| residueString | shrunken log2 fold change |
| --- | --- |
| RRIRNRPPRLPRPRPRPIYIPRP | 0.0152 |
| RRIRNRPPRLPRPRPRPCSDPRP | 0.0121 |
| RRIRMRPPRLPRPRPRPLHEPRP | 0.545 |
| RRIRVRPPRLPRPRPRPVAAPRP | 0.368 |
| RRIRIRPPRLPRPRPRPPDCPRP | -0.0639 |
| RRIRCRPPRLPRPRPRPVKYPRP | -0.596 |
| RRIRCRPPRLPRPRPRPERMPRP | -0.015 |
| RRIRMRPPRLPRPRPRPTNVPRP | -0.0668 |

###

Readings of shrunken log2 fold change for the listed sequences
System: Escherichia coli TOP10;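 further: peptides expressed intracellularly from a pBAD plasmid library in pooled LB shake-flask culture, induced with 0.3% L-arabinose, DNA abundance read by NGS, three biological replicates, DESeq2 with apeglm shrinkage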
Assay: shrunken log2 fold change of peptide-encoding DNA abundance (4.5 h post-induction vs induction); higher = less antimicrobial activity (less host growth inhibition)
Conditions: time post-induction: 4.5 h; library: site-saturation at positions 5, 18, 19, 20

| residueString | shrunken log2 fold change |
| --- | --- |
| RRIRTRPPRLPRPRPRPIEVPRP | 0.131 |
| RRIRRRPPRLPRPRPRPYACPRP | -0.207 |
| RRIRTRPPRLPRPRPRPNRHPRP | -0.36 |
| RRIRARPPRLPRPRPRPPWGPRP | 0.48 |
| RRIRNRPPRLPRPRPRPLTLPRP | -0.358 |
| RRIRARPPRLPRPRPRPAQRPRP | 0.695 |
| RRIRKRPPRLPRPRPRPFYVPRP | -0.0997 |
| RRIRSRPPRLPRPRPRPMVKPRP | -0.0162 |
| RRIRLRPPRLPRPRPRPGRNPRP | -0.0488 |
| RRIRYRPPRLPRPRPRPMDKPRP | -0.432 |
| RRIRFRPPRLPRPRPRPMAEPRP | 0.0579 |
| RRIRPRPPRLPRPRPRPRGTPRP | 0.0776 |
| RRIRPRPPRLPRPRPRPAIRPRP | 0.0298 |
| RRIRERPPRLPRPRPRPLDNPRP | -0.487 |
| RRIRKRPPRLPRPRPRPYRIPRP | -0.0846 |
